molecular target: CYP2B6 (Homo sapiens); assay type: biochemical; details: IC50, nornicotine formation; nicotine 100 μM; rec CYP2B6 microsomes
ASSAY READOUT: pIC50
Please treat pIC50 as minus the base-10 logarithm of the molar concentration.

Which pIC50 reading was recorded for the compound `C=C(C)[C@@H]1CCC(C)=C[C@H]1c1c(O)cc(CCCCC)cc1O` ? 6.33

====

Biological target: UGT1A9 (Homo sapiens, UniProt O60656)
Sequence (O60656 26-530): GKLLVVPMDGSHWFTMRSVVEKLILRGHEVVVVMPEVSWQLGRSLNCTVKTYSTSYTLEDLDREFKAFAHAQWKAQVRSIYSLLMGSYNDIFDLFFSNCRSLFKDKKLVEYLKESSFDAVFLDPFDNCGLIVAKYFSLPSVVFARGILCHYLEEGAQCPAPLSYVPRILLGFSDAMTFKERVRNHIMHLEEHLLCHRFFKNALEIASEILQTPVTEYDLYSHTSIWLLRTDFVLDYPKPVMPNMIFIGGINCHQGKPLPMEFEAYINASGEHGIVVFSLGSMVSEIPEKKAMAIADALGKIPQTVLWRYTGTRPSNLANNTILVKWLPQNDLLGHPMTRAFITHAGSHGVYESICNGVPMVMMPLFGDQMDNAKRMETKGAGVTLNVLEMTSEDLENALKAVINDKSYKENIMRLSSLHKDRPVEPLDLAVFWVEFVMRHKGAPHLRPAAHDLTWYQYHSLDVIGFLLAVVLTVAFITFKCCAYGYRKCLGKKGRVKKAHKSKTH
Assay type: biochemical
Details: IC50,u (binding-corrected IC50), 3HC-Gluc formation; 3HC 30 mM; rec UGT1A9 microsomes; IC50 × fu,inc
ASSAY READOUT: pIC50
Scale explanation: pIC50 corresponds to minus log10 of a concentration expressed in moles per litre.

pIC50 of `C=C(C)[C@@H]1CCC(C)=C[C@H]1c1c(O)cc(CCCCC)cc1O` on UGT1A9 (Homo sapiens, UniProt O60656)? 6.43

====

target: CYP2B6 (Homo sapiens); assay type: biochemical; conditions: human, microsomes from CYP2B6-overexpressing HEK293 cells, pH 7.4, probe nicotine (nornicotine formation)
ASSAY READOUT: inhibition at 30 min, 1 µM

Query for CYP2B6 (Homo sapiens): what inhibition at 30 min, 1 µM does the record show for `C=C(C)[C@@H]1CCC(C)=C[C@H]1c1c(O)cc(CCCCC)cc1O` ? 75%

====

biological target: UGT2B17 (Homo sapiens); type: biochemical; details: human, microsomes from UGT2B17-overexpressing HEK293 cells, pH 7.4, probe 3HC (30 mM), 3HC-Gluc formation
Sequence (O75795 24-530): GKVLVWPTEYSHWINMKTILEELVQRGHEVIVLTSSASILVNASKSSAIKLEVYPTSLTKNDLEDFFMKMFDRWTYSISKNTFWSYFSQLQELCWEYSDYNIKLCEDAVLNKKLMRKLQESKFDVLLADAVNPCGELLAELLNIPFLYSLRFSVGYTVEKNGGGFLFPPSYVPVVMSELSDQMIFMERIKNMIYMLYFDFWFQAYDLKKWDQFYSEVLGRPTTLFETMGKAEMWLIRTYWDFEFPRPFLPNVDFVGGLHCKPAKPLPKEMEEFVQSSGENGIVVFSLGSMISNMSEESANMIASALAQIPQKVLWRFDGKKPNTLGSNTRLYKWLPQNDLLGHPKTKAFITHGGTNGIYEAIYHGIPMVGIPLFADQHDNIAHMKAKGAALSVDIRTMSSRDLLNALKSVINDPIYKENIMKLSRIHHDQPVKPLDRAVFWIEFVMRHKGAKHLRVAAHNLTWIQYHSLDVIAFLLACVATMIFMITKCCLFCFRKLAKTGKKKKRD
ASSAY READOUT: inhibition at 200 µM

Would you kindly share the measured inhibition at 200 µM for `Cc1ccc(NC(=O)c2ccc(CN3CCN(C)CC3)cc2)cc1Nc1nccc(-c2cccnc2)n1` ? ≤ 65%

====

target: CYP2B6 (Homo sapiens, UniProt P20813); assay type: biochemical; details: human, microsomes from CYP2B6-overexpressing HEK293 cells, pH 7.4, probe nicotine (cotinine formation)
Sequence (P20813 whole entry): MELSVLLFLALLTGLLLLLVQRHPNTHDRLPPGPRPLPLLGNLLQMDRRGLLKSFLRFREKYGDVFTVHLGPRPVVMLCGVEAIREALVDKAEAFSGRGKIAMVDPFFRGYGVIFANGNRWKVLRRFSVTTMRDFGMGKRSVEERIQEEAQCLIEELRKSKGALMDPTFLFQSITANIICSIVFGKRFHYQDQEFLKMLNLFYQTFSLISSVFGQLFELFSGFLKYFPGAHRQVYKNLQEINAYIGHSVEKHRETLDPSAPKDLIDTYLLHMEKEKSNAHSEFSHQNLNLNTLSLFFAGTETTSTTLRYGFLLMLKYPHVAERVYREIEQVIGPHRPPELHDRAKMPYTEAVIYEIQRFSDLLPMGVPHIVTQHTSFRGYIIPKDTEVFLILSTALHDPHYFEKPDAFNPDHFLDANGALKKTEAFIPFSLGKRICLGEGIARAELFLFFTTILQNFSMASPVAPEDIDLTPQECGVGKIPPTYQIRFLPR
ASSAY READOUT: inhibition at 30 min, 1 µM
Remember to quote the unit after the number.

Could you tell me which inhibition at 30 min, 1 µM is on file for C=C(C)[C@@H]1CCC(C)=C[C@H]1c1c(O)cc(CCCCC)cc1O [CBD, cannabidiol] ? 50%
